Attribution: PubChem BioAssay (NCI)

tested on: SK-MEL-28 melanoma; experiment: NCI-60 one-dose screen, 48 h; settings: 10 µM unless noted
About 83,000 compounds went through this panel and 20% of them were active in at least one assay; those are over-represented in the sample as a whole. The source made the active and inactive calls. The calls were made as follows: active = growth percent below 10; inactive = the rest.
Labels: active, inactive

Compound | System Tested | Class Label
Cn1cc(-c2csc(-c3cn(CCOC(N)=O)c4ccccc34)n2)c2cccnc21 | SK-MEL-28 melanoma | inactive
Clc1nccc2c(-c3csc(-c4c[nH]c5ccc(Br)cc45)n3)c[nH]c12 | SK-MEL-28 melanoma | active
Clc1ccc(Nc2nc(Nc3ccc(Cl)cc3)nc(Nc3ccc(-c4cc(-c5cccc(Cl)c5)on4)cc3)n2)cc1 | SK-MEL-28 melanoma | inactive
C#CCOCC1CN(C)C(=O)O1 (stereo not given) | SK-MEL-28 melanoma | inactive
CC12CCC(C(=O)CC1=O)C2(C)C (stereo not given) | SK-MEL-28 melanoma | inactive
CCN(CC)CC(=O)Nc1ccc2ncnc(Nc3ccc(Oc4cccc(F)c4)c(Cl)c3)c2c1 | SK-MEL-28 melanoma | inactive
COc1ccc(C2Nc3nc(SC)nc(N)c3N=C3c4ccccc4CCC32)cc1 (stereo not given) | SK-MEL-28 melanoma | inactive
COc1cc2cc(NCc3ccncc3)nc(C)c2cc1OC | SK-MEL-28 melanoma | inactive
Cc1ccc(-c2nc([P+](c3ccccc3)(c3ccccc3)c3ccccc3)c(Nc3ccccc3)o2)cc1 | SK-MEL-28 melanoma | active
C[N+]1=C(/C=C\C=C\c2ccccc2)C(C)(C)c2ccccc21 | SK-MEL-28 melanoma | active
COc1ccc(-c2c[nH]c(C(=O)O)c2-c2cc(OC)c(OC)c(OC)c2)cc1 | SK-MEL-28 melanoma | inactive
NC1=CC(=O)c2cccnc2C1=O | SK-MEL-28 melanoma | active
Cc1nc2sc(C(=O)Nc3cccc4ccccc34)c(N)c2cc1C(=O)/C=C/c1ccccc1 | SK-MEL-28 melanoma | inactive
COC1/C=C/OC2(C)Oc3c(C)c(O)c4c(O)c(c(C=NOC(c5ccccc5)c5ccccc5)c(O)c4c3C2=O)NC(=O)/C(C)=C/C=C/C(C)C(O)C(C)C(O)C(C)C(OC(C)=O)C1C (stereo not given) | SK-MEL-28 melanoma | active
Cc1cccc(-c2nnc(SCC(=O)Nc3ncc(Cc4ccccc4)s3)n2N2C(=O)CSC2=S)c1 | SK-MEL-28 melanoma | inactive
COC(=O)c1nc(-c2ccc(C)cc2)oc1S(=O)(=O)c1ccc(Cl)cc1 | SK-MEL-28 melanoma | inactive
CCCCC1=C(Br)C(=O)c2nc(C)ccc2C1=O | SK-MEL-28 melanoma | inactive
CN(Cc1ccccc1)c1nc(Cl)c(C2CC(c3ccc4c(c3)OCO4)=NN2c2cc(Cl)cc(Cl)c2)s1 (stereo not given) | SK-MEL-28 melanoma | inactive
COCCn1cc(-c2csc(-c3cn(C)c4ccc(F)cc34)n2)c2cccnc21 | SK-MEL-28 melanoma | inactive
OCc1cc(CN2CCCCC2)c(O)c2ncccc12 | SK-MEL-28 melanoma | inactive
